Target: Cbl-b (Homo sapiens (Human), UniProt Q13191)
Sequence (Q13191 40-426): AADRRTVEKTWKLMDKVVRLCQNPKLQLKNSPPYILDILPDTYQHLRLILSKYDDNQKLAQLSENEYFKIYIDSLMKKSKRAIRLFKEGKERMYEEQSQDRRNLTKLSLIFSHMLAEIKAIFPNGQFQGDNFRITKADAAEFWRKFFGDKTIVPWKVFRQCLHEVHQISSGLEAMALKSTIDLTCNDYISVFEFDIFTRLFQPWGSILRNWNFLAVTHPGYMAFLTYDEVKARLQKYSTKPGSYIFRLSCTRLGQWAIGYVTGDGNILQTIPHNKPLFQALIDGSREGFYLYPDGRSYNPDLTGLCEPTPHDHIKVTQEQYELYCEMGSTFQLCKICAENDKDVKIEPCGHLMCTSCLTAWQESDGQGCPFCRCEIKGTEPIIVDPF
Test: Cbl-b LCK Ub TR-FRET assay (Cbl-b Lck HTRF)
Format: biochemical
Conditions: Cbl-b LCK Ub TR-FRET
measure: log10 IC50 (log10 of the value in nM)
For clarity, the numbers are log10 values of IC50 expressed in nM.

Look over these answered cases.
>  <molecule>
Cn1cnnc1[C@H](c1cccc(N2Cc3c(cc(CNC4(C)CCC4)cc3C(F)(F)F)C2=O)c1)C1CC(OCC(F)F)C1 (single isomer, unassigned) [Compound 263]

>  <experimental_target>
Cbl-b (Homo sapiens (Human), UniProt Q13191)

>  <log10 IC50>
1.00

$$$$
>  <molecule>
CO[C@H]1C[C@@](c2cc(NC3CC3)cc(N3Cc4c(cc(CNC5(C)CCC5)cc4C(F)(F)F)C3=O)c2)(c2nncn2C)C1 [Compound 231]

>  <experimental_target>
Cbl-b (Homo sapiens (Human), UniProt Q13191)

>  <log10 IC50>
1.04

$$$$
>  <molecule>
CC(C)[C@H]1CN(C)CCN1Cc1cc2c(c(C(F)(F)F)c1)CN(c1cccc([C@@H](c3nncn3C)C3COC3)c1)C2=O (single isomer, unassigned) [Compound 10]

>  <experimental_target>
Cbl-b (Homo sapiens (Human), UniProt Q13191)

>  <log10 IC50>
1.08

$$$$

Request: Specify reported log10 IC50 for the molecule shown: Cn1cnnc1C(c1cccc(N2Cc3c(cc(CNC4(C)CCC4)cc3C(F)(F)F)C2=O)c1)[C@H]1C[C@@H](Cl)C1 (single isomer, unassigned) [Compound 357]
Result: 0.72

Request: Specify reported log10 IC50 for the molecule shown: CCc1cc(N2Cc3c(cc(CNC4(C)CCC4)cc3C(F)(F)F)C2=O)cc([C@]2(c3nncn3C)C[C@@H](OC)C2)c1 [Compound 235]
Result: 1.89

Request: Specify reported log10 IC50 for the molecule shown: CO[C@H]1C[C@@](c2cc(NC3COC3)cc(N3Cc4c(cc(CNC5(C)CCC5)cc4C(F)(F)F)C3=O)c2)(c2nncn2C)C1 [Compound 243]
Result: 1.81

Data credit: patent US12187709B2
